target: Metabotropic glutamate receptor 4 (Homo sapiens) (UniProt Q14833); assay: PubChem AID 2180; settings: CHO hmGluR4/Gqi5, calcium mobilization, glutamate CRC fold-shift
Sequence (Q14833 whole entry, looked up): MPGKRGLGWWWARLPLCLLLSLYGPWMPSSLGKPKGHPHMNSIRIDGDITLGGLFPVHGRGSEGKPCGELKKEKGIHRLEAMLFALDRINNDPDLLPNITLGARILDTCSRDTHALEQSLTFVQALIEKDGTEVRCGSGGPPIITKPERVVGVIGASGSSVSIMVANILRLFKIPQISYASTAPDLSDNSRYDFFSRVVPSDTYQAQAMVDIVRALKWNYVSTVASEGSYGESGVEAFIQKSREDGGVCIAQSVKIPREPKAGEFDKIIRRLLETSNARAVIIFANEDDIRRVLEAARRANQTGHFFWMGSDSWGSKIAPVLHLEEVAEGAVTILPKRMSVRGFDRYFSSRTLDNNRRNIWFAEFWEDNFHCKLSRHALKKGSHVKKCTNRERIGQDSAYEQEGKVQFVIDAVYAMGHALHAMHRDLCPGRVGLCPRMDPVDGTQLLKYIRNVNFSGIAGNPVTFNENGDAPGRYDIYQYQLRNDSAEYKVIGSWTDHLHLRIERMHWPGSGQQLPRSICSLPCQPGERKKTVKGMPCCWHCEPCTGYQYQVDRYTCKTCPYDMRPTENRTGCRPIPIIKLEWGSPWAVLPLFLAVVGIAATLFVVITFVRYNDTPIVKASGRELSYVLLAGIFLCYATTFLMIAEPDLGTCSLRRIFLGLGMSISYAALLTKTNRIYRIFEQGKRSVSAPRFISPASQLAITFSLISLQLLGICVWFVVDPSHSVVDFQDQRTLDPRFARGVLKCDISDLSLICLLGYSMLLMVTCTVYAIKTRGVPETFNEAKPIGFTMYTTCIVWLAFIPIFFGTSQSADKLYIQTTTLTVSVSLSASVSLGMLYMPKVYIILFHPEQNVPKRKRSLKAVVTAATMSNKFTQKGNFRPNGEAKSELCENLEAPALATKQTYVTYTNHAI
Activity calls are given as the source filed them. How the calls were made is not given here.
Respond with a class label; see label 1 (active), label 0 (inactive)

Some solved cases for reference:
INSERT INTO results (chemical_string, class_name) VALUES
  ('COc1cc(NC(=O)c2ccccn2)ccc1Cl', 'label 1'),
  ('O=C(Nc1ccc(F)c(C(F)(F)F)c1)c1ccccn1', 'label 0'),
  ('COc1cc(NC(=O)c2ccccn2)ccc1F', 'label 1'),
  ('O=C(Nc1cccc(Cl)c1)c1ccccn1', 'label 1'),
  ('COc1ccc(NC(=O)c2ccccn2)cc1Cl', 'label 1'),
  ('COc1cc(NC(=O)c2ccccn2)ccc1C', 'label 1');

Now examine the next entry.
### Prompt // outcome(item) with item = `O=C(Nc1ccc(Cl)c(C(F)(F)F)c1)c1ccccn1`
### Response label 0
